PBM binding z-score values, listed per item
- System: VDR homodimer (NR concentration 270 nM)
- experiment-description: PBM binding z-score (relative to random genomic background probes); higher = stronger binding; sequences stand for … in GC…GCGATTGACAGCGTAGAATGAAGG
value-kind: PBM binding z-score

1) GCTGCTAGGTCAGGTTGGTCATCTAACGGGTACG
0.689
2) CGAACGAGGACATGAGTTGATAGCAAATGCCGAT
0.998
3) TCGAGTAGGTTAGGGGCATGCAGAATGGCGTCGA
0.0612
4) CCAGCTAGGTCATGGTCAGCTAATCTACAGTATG
0.247
5) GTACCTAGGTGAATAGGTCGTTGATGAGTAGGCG
0.0472
6) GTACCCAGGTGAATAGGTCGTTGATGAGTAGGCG
0.0528
7) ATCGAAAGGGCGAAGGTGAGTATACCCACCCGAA
-0.263
8) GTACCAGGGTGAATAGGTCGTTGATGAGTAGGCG
0.626
9) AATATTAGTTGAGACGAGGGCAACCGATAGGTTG
1.73
10) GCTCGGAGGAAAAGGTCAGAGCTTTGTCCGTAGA
-0.277
11) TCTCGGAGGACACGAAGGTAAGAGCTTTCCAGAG
-0.641
12) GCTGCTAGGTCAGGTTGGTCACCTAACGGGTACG
0.477
13) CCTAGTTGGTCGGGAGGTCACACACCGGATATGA
3.06
14) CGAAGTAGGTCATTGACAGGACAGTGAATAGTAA
1.07
15) ACAGACAGGTGAGTGGAGGTAACTCAGCTGGACG
-0.0506
16) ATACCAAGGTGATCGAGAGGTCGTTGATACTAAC
1.98
17) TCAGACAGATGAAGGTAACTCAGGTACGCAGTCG
0.0374
18) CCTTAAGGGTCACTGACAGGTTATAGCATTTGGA
2.04
19) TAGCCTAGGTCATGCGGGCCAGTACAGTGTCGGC
0.448
20) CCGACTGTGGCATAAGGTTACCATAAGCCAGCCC
-0.189
21) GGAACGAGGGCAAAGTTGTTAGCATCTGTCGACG
1.32
22) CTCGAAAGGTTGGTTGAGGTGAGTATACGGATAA
0.513
23) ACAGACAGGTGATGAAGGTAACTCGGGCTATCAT
-0.217
24) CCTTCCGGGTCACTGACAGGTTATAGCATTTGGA
1.3
25) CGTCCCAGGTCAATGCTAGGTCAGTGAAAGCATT
1.74
26) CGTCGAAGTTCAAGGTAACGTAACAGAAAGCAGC
1.74

====

- System: PPARg homodimer (NR concentration 180 nM)
- experiment-description: PBM binding z-score (relative to random genomic background probes); higher = stronger binding; sequences stand for … in GC…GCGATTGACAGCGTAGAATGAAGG
PBM binding z-score values, listed per item
value-kind: PBM binding z-score

1. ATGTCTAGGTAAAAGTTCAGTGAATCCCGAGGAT
1.17
2. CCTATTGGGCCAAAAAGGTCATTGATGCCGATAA
2.26
3. AGAACGAGGGCACGCTTAGTTGATAGCAGAGTAG
0.226
4. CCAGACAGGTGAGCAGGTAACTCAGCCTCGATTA
0.319
5. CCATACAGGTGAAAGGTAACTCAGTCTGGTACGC
1.27
6. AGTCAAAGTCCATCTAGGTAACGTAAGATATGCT
-0.173
7. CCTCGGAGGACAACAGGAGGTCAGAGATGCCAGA
1.1
8. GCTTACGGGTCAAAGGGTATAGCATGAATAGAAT
2.55
9. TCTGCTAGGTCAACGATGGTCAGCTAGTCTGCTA
0.415
10. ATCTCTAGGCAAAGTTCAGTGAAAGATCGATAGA
0.889
11. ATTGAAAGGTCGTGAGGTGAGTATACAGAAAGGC
2.07
12. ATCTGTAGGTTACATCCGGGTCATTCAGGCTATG
1.96
13. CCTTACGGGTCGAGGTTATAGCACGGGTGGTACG
1.53
14. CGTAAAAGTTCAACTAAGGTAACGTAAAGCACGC
2.7
15. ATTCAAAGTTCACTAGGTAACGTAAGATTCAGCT
2.66
16. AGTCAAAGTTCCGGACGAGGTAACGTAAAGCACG
-0.335
17. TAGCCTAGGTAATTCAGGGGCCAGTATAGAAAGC
-0.334
18. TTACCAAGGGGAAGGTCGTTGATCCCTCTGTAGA
-0.13
19. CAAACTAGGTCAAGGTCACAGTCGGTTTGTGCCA
5.11
20. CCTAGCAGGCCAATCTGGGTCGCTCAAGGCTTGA
-0.519
21. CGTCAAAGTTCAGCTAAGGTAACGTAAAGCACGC
1.44
22. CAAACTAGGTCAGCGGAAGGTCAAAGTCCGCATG
5.64
23. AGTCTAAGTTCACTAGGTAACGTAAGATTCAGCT
1.24
24. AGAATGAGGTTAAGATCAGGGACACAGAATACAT
1.01
25. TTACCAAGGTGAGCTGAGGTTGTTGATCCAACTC
-0.248
26. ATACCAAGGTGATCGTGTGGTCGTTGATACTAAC
0.519

====

- System: RARa homodimer (NR concentration 270 nM)
- experiment-description: PBM binding z-score (relative to random genomic background probes); higher = stronger binding; sequences stand for … in GC…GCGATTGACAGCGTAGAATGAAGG
Param threshold (0.2) applies to PBM binding z-score; output Yes when value >= threshold, No when value < threshold.

1) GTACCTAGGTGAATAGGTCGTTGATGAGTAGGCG
No
2) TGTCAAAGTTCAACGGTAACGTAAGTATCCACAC
Yes
3) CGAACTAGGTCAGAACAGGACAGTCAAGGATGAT
Yes
4) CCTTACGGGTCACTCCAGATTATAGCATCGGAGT
Yes
5) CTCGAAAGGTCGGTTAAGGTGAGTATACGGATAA
Yes
6) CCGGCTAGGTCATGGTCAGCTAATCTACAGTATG
Yes
7) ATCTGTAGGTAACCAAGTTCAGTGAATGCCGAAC
Yes
8) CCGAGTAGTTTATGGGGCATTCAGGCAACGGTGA
No
9) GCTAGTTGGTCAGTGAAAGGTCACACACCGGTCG
Yes
10) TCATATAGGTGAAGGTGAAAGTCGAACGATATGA
Yes
11) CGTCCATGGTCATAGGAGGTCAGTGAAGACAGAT
Yes
12) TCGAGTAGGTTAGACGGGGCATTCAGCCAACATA
No
13) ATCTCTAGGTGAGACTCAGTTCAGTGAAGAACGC
No
14) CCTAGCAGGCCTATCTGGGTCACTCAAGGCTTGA
No
15) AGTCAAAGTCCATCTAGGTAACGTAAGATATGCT
No
16) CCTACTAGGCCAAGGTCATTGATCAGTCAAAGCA
Yes
17) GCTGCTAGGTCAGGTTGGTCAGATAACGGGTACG
Yes
18) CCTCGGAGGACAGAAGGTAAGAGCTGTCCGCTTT
No
19) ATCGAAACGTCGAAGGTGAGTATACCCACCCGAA
No
20) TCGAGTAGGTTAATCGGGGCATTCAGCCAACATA
No
21) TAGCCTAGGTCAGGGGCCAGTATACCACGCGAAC
No
22) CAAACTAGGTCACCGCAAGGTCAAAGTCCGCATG
Yes
23) TCATATAGGTCAATGCTAGGTGAAAGTCCGATCT
Yes
24) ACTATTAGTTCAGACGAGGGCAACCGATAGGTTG
Yes
25) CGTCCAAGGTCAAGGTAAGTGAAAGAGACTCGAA
Yes
26) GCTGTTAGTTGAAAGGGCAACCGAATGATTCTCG
No

====

- Tested on: LXRa:RXRa (NR concentration 270 nM, RXRa partner concentration 90 nM)
- experiment-description: PBM binding z-score (relative to random genomic background probes); higher = stronger binding; sequences stand for … in GC…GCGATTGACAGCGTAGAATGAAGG
Param threshold (1) applies to PBM binding z-score; output condition met when value >= threshold, condition not met when value < threshold.

1) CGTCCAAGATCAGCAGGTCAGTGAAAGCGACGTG
condition not met
2) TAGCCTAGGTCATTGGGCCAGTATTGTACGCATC
condition met
3) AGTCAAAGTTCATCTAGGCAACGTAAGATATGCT
condition met
4) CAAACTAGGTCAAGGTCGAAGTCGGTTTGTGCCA
condition met
5) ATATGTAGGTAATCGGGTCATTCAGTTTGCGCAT
condition met
6) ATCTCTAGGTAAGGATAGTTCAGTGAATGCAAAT
condition not met
7) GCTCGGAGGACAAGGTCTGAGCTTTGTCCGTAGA
condition not met
8) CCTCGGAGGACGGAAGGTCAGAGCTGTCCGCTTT
condition met
9) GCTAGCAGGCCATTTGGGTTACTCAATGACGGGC
condition not met
10) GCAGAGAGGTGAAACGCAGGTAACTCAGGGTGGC
condition met
11) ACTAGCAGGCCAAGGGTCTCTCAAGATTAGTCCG
condition not met
12) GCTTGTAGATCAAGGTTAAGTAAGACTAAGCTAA
condition not met
13) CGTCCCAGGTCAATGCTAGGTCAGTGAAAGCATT
condition met
14) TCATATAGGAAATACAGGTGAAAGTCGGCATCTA
condition met
15) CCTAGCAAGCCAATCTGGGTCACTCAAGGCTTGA
condition not met
16) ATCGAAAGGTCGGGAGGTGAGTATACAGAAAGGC
condition met
17) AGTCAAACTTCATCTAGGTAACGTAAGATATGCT
condition not met
18) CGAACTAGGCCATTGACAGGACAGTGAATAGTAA
condition not met
19) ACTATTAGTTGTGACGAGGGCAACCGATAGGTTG
condition not met
20) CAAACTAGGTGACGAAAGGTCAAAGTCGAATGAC
condition met
21) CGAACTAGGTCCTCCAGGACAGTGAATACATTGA
condition not met
22) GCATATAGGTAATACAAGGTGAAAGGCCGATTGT
condition met
23) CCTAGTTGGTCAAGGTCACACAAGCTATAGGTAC
condition met
24) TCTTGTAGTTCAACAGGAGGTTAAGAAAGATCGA
condition met
25) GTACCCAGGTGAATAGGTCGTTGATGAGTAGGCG
condition not met
26) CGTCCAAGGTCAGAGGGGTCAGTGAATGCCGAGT
condition met
